Data origin: PubChem BioAssay AID330

Tested on: P388 leukemia ip, CD2F1 mice, survival T/C
Experiment: NCI In Vivo Anticancer Drug Screen. Data for tumor model P388 Leukemia (intraperitoneal) in CD2F1 (CDF1) mice
Conditions: endpoint: median survival time; dose: 400.0 mg/kg/injection; schedule: Q01DX009 (ip); vehicle: Klucel (hydroxypropylcellulose) (HPC); higher = longer survival
Toxic doses and inconclusive results are not listed.
Metric: T/C

Compound | Readout value
NC(=O)NCCSC1(SCCNC(N)=O)CCCCC1 | 99 % of control
O=C1c2ccccc2C(=O)c2c1ccc(C(=O)O)c2-c1ccc2ccccc2c1 | 117 % of control
Cc1ccc(S(=O)(=O)CC(=O)c2ccccc2)cc1 | 104 % of control
NC(=O)C1CCCC12NC(=O)NC2=O (stereo not given) | 100 % of control
NC(=O)NCCSc1ccc(SCCNC(N)=O)nn1 | 90 % of control

----------
Tested on: P388 leukemia ip, CD2F1 mice, survival T/C
Experiment: NCI In Vivo Anticancer Drug Screen. Data for tumor model P388 Leukemia (intraperitoneal) in CD2F1 (CDF1) mice
Details: endpoint: median survival time; dose: 30.0 mg/kg/injection; schedule: Q01DX005 (ip); vehicle: saline with Tween-80; higher = longer survival
Inconclusive results and toxic doses are left out.
As shown below, each of these compounds has a reported T/C value.

Compound | Study system | T/C
CCCCCCCC(=O)c1c(O)c2ccccc2oc1=O | P388 leukemia ip, CD2F1 mice, survival T/C | 105 % of control
CN1c2cccc[c]2[Sn]([CH3])([CH3])[c]2ccccc21 | P388 leukemia ip, CD2F1 mice, survival T/C | 115 % of control
CCCCOc1cc(C(=O)NCCN(C)C)c2ccccc2n1 | P388 leukemia ip, CD2F1 mice, survival T/C | 106 % of control
Cc1cc(C)c(S(=O)(=O)N/N=C(\CBr)c2ccccc2)c(C)c1 | P388 leukemia ip, CD2F1 mice, survival T/C | 102 % of control
C1=C[N-]c2c3c(ccc2=C1)=CC=C[N-]3.C1=C[N-]c2c3c(ccc2=C1)=CC=C[N-]3.C1=C[N-]c2c3c(ccc2=C1)=CC=C[N-]3.[Co+3].[O-][Cl+3]([O-])([O-])O | P388 leukemia ip, CD2F1 mice, survival T/C | 104 % of control
O=C(/C=C/c1c[nH]c2ccccc12)c1ccc([N+](=O)[O-])cc1 | P388 leukemia ip, CD2F1 mice, survival T/C | 86 % of control
COc1cc2c(cc1OC)[C@H](c1cc(OC)c3c(c1)OCO3)[C@H]1C(=O)OCC1C2 (stereo not given in full) | P388 leukemia ip, CD2F1 mice, survival T/C | 88 % of control
COC(=O)c1cc(Cl)ccc1NCC(N)c1ccccc1 (stereo not given) | P388 leukemia ip, CD2F1 mice, survival T/C | 99 % of control
CCOP(OCC)SSCn1nc2ccc3ccccc3n2c1=O | P388 leukemia ip, CD2F1 mice, survival T/C | 97 % of control
CCC(=O)C(C)C1(C(=O)OC)NC(=S)NC(=O)C1C#N (stereo not given) | P388 leukemia ip, CD2F1 mice, survival T/C | 103 % of control

----------
Test system: P388 leukemia ip, CD2F1 mice, survival T/C
Assay: NCI In Vivo Anticancer Drug Screen. Data for tumor model P388 Leukemia (intraperitoneal) in CD2F1 (CDF1) mice
Conditions: endpoint: median survival time; dose: 50.0 mg/kg/injection; schedule: Q04DX003 (ip); vehicle: saline with Tween-80; higher = longer survival
Toxic doses and inconclusive results are not listed.
T/C: recorded values

Molecule | Study system | T/C
Nc1nc2n(n1)C(=O)C(=O)N2 | P388 leukemia ip, CD2F1 mice, survival T/C | 100 % of control
O=C(NCc1ccccc1)c1ccc(Cl)c(Cl)c1 | P388 leukemia ip, CD2F1 mice, survival T/C | 104 % of control
O=C1OCC2C(=O)OCC12 (stereo unspecified) | P388 leukemia ip, CD2F1 mice, survival T/C | 99 % of control
COc1ccc(-n2nnnc2N(C)c2ccccc2)cc1 | P388 leukemia ip, CD2F1 mice, survival T/C | 100 % of control
CNC(=O)Nc1nnnc2ccccc12 | P388 leukemia ip, CD2F1 mice, survival T/C | 100 % of control
CCCCOc1cc(C(=O)O)ccc1[N+](=O)[O-] | P388 leukemia ip, CD2F1 mice, survival T/C | 100 % of control
